Listed next: entries and their corresponding pIC50.
System: 5-HT2C edited (accession number AAF35842.1) (Homo sapiens, UniProt P28335, I156V/I160V/N158S)
Sequence (P28335 whole entry I156V/N158S/I160V, looked up): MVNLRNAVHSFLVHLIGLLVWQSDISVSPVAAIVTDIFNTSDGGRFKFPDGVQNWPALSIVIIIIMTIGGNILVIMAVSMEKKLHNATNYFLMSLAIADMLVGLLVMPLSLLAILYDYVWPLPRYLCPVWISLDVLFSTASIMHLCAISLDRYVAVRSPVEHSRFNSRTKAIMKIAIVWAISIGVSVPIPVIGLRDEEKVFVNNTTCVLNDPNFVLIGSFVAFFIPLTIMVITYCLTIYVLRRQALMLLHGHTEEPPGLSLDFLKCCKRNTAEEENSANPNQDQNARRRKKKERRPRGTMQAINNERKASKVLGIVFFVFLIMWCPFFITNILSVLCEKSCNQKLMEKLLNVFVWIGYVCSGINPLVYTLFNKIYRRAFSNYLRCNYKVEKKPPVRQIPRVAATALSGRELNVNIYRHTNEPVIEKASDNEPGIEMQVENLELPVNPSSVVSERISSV
Method Description: biochemical
pIC50: −log10 of the molar value.

| Molecule | pIC50 |
| --- | --- |
| C[C@@H](N)Cn1ccc2cncnc21 [Example 26] | 5.00 to 6.00 |
| COc1cc(F)c2c(ccn2CC(C)(C)N(C)C)c1 [Example 17] | < 5.00 |
| COc1cc2ccn(CC(C)(C)N(C)C)c2cc1F [Example 16] | < 5.00 |
| COc1ccc2c(ccn2[C@H]2C[C@H](N(C)C)C2)c1 [Example 25] | 5.00 to 6.00 |
| COc1ccc2c(ccn2CC(C)(C)N(C)C)c1F [Example 15] | < 5.00 |
| COc1ccc2c(ccn2C(=O)[C@@H](C)N(C)C)c1 [Example 47] | < 5.00 |
| CN(C)CC(=O)n1ccc2cc(F)ccc21 [Example 43] | < 5.00 |
| Cc1cn(CC(C)(C)N(C)C)c2ccc(F)cc12 [Example 13] | 5.00 to 6.00 |
| COc1ncc2c(ccn2CC(C)(C)N(C)C)n1 [Example 23] | < 5.00 |
| Cc1cn(CC(C)(C)N)c2ccc(F)cc12 [Example 40] | 6.00 to 7.00 |
| COc1cc2ccn(CCN(C)C)c2cn1 [Example 4] | 6.00 to 7.00 |

// provenance: patent US20230219969A1
